Taken from ChEMBL document CHEMBL3232756.

- Tested on: Mus musculus
- measurement_protocol: Analgesic activity in Swiss albino mouse assessed as inhibition of acetic acid-induced writhing response at 100 mg/kg, po administered 1 hr before acetic acid challenge after 5 mins
- Type: functional
Classify as follows. Reported inhibition in vivo at 100 mg/kg greater than or equal to 40%: 1.0. Reported inhibition in vivo at 100 mg/kg below: 0.0.

molecule | label_value
COc1ccc(/C=C(/NC(=O)c2ccccc2)C(=O)NC(CS)C(=O)N(C(=O)NC2CCCCC2)C2CCCCC2)cc1 (stereo not drawn) | 0.0
O=C(NCC(=O)N(C(=O)NC1CCCCC1)C1CCCCC1)/C(=C\c1ccc(O)cc1)NC(=O)c1ccccc1 | 0.0
CC(C)c1ccc(/C=C(/NC(=O)c2ccccc2)C(=O)NC(CS)C(=O)N(C(=O)NC2CCCCC2)C2CCCCC2)cc1 (stereo not drawn) | 1.0
CC(=O)Oc1ccccc1C(=O)O | 1.0
O=C(NCC(=O)N(C(=O)NC1CCCCC1)C1CCCCC1)/C(=C\c1ccc(F)cc1)NC(=O)c1ccccc1 | 0.0
O=C(NC(CS)C(=O)N(C(=O)NC1CCCCC1)C1CCCCC1)/C(=C\c1ccc(F)cc1)NC(=O)c1ccccc1 (stereo not drawn) | 1.0
Cc1ccc(/C=C(/NC(=O)c2ccccc2)C(=O)NC(CS)C(=O)N(C(=O)NC2CCCCC2)C2CCCCC2)cc1 (stereo not drawn) | 1.0
